Target: Muscarinic acetylcholine receptor M5 (Homo sapiens)
Assay: human M5 muscarinic receptor positive allosteric modulators, primary screen, CHO-K1 cells, Fluo-8 calcium fluorescence (AID 624038)
Conditions: CHO-K1 hM5, Fluo-8 calcium, ACh EC20 PAM; at 3 µM; 0% = ACh EC20, 100% = ACh EC100
The campaign covered roughly 360,000 compounds. About 1,100 (0.31%) were called active.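 How the source made its calls: active means activation above the run cutoff, the mean activation of all test compounds plus 3 SD (cut at about 18% in these data); inactive means the rest.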 This is one part of a sample in which actives are shown more often than they occur.
The reply should name one outcome from 1 (yes) for active, 0 (no) for inactive

Sample answers from the record:
Prompt line: Please state the recorded outcome for this compound: COc1ccccc1-n1c(SCC(=O)O)nc2sc3c(c2c1=O)CCC3
Response line: 0 (no)

Prompt line: Try this compound next: O=C(OC12CC3CC(CC(C3)C1)C2)c1ccc(NCc2cc(O)ccc2O)cc1
Response line: 1 (yes)

Prompt line: Try this compound next: O=C(c1ccc(Br)o1)N1CCN(CCOc2ccccc2)CC1
Response line: 0 (no)

Prompt line: Try this compound next: CCSc1nc2sc3c(c2c(=O)n1-c1ccc(C)cc1)CCN(C)C3
Response line: 0 (no)

Continuing:
Prompt line: Please state the recorded outcome for this compound: COc1ccc(OCC(=O)NCCS(=O)(=O)N2CCN(c3ccc(F)cc3)CC2)cc1
Response line: 0 (no)

====

Biological target: Muscarinic acetylcholine receptor M5 (Homo sapiens) (UniProt P08912)
Sequence (P08912 whole entry, looked up): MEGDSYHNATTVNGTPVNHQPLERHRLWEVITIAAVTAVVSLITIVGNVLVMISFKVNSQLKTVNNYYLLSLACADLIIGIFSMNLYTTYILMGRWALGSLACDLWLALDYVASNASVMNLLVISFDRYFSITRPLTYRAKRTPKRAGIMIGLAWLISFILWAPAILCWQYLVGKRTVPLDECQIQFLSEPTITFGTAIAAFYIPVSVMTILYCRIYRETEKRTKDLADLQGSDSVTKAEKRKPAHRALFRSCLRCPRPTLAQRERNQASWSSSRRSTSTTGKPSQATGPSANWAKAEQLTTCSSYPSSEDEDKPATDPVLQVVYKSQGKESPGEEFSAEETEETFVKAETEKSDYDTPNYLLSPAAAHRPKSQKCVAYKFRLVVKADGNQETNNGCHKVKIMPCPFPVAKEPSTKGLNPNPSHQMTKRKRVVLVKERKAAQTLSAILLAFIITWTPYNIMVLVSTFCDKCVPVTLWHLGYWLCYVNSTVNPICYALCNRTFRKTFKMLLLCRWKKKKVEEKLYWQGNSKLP
Assay: human M5 muscarinic receptor positive allosteric modulators, primary screen, CHO-K1 cells, Fluo-8 calcium fluorescence (AID 624038)
Details: CHO-K1 hM5, Fluo-8 calcium, ACh EC20 PAM; at 3 µM; hits give high values; 0% = ACh EC20, 100% = ACh EC100
The whole screen tested about 360,000 compounds, of which about 1,100 (0.31%) were called active. For the sample, actives were picked, then their nearest neighbours and some compounds at random.
Hi there, I'd appreciate the recorded activation for every entry that follows.
Give bare numbers, in %.

Prompt line: Report activation for CC(C)(C)NC(=O)CN(C(=O)c1csnn1)c1ccccc1-c1ccccc1 please.
Response line: -2.48

Prompt line: Try this compound next: Cc1ccc(C(=O)NC(C)c2ccccc2)cc1Br (stereo not drawn)
Response line: -0.29

Prompt line: Try this compound next: COCCNc1nc(N)c([N+](=O)[O-])c(NCCO)n1
Response line: -6.19

Prompt line: Try this compound next: CCOC(=O)CNC(=O)/C=C/c1c(Cl)cccc1Cl
Response line: 20.4

Prompt line: Try this compound next: CCc1ccc(NC(=O)C(=O)N/N=C(\C)CC(=O)NCCOC)cc1
Response line: 3.15

Prompt line: Try this compound next: CCOc1ccc(N(C)S(=O)(=O)c2cnc[nH]2)cc1
Response line: 11.8

Prompt line: Try this compound next: COc1ccc(CCNS(=O)(=O)c2ccc(C(=O)NCc3ccco3)cc2)cc1OC
Response line: 1.67

Prompt line: Try this compound next: CN(C)Cc1c(C#N)c2ccccc2n1C
Response line: 18.2

Prompt line: Try this compound next: COc1ccc2c(-c3ccccc3)cc(SCC(=O)N(C)C3CCS(=O)(=O)C3)nc2c1 (stereo not drawn)
Response line: -0.41

Prompt line: Try this compound next: Cn1ncc2c(NNC(=O)Cc3cccc4ccccc34)ncnc21
Response line: 6.42

Hi! Can you tell me activation for each of these compounds?
1. O=C(Cn1[nH]c(=O)c2ccccc2c1=O)Nc1cccc(-c2nnc3n2CCCCC3)c1
2. CSCC(=O)N1CCCC(C(=O)c2cc(F)ccc2F)C1 (stereo not drawn)
3. Cn1ncc2c(Nc3cccc4ccccc34)ncnc21
4. O=C(/C=C/c1c(Cl)cccc1Cl)NCc1ccccc1
5. COc1cccc(N(CC(=O)N2CCc3ccccc3C2)S(C)(=O)=O)c1
6. CCCCOP(=O)(c1ccc(N(C)C)cc1)C(O)c1cc(OC)ccc1OC (stereo not drawn)

Response line:
[22.3, -4.39, 43.5, 0.05, -6.56, 4.18]

Hi! Can you tell me activation for each of these compounds?
1. CC(C)(C)NC(=O)CN(C(=O)c1ccc(Cl)nc1)c1cccc2ccccc12
2. O=C(/C=C/c1c(F)cccc1Cl)Nc1nn[nH]n1
3. Cc1cccc(N(C(=O)Cc2cccs2)C(C(=O)NC2CCCC2)c2ccsc2)c1 (stereo not drawn)
4. CC(C)(C)n1nc(Cc2cccc3ccccc23)c(C#N)c1N
5. CC(NC(=O)C(=O)N/N=C/c1ccc(Cl)cc1)c1ccccc1 (stereo not drawn)
6. Cc1c(C(=O)Nc2cccc(-c3nnc4n3CCCCC4)c2)oc2ccccc12
7. CN(C(=O)COC(=O)c1cc(-c2ccco2)nc2ccccc12)C1CCS(=O)(=O)C1 (stereo not drawn)

Response line:
22.9
-6.11
-1.6
-3.53
-5.3
-11.2
2.3

Hey, just so you know, these numbers are from PubChem BioAssay AID624038.
